Target: Sfl VirB (Shigella flexneri, UniProt P0A247)
Construct: full length, N-terminal GFP tag removed with HRV-3C protease, made in E. coli BL21-Gold (DE3), dimer
Sequence (P0A247 whole entry): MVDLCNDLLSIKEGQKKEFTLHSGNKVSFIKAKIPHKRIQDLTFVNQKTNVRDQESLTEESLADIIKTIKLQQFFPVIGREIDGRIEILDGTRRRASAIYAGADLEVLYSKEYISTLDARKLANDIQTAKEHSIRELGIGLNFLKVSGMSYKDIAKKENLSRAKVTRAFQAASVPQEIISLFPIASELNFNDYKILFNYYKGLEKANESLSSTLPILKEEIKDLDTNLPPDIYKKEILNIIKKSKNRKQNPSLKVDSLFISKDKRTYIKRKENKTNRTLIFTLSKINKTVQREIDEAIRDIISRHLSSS
Test: isothermal titration calorimetry
pKd: −log10 of the molar value.
endpoint: pKd

[Q] Tell us which pKd value is on record for Nc1ccn([C@@H]2O[C@H](COP(=O)(O)OP(=O)(O)OP(=O)(O)O)[C@@H](O)[C@H]2O)c(=O)n1
[A] ~6.00
